# experimentSummary: PSAC antagonists in infected red cells, primary screen, cell-based, P. falciparum Indochina, OD700, 2 h (AID 1155);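 also: lysis reports solute entry through the parasite surface anion channel PSAC; channel blockers reduce lysis of infected cells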
# conditionContext: P. falciparum Indochina infected erythrocytes, osmotic lysis OD700; higher = more signal, called active from +8 up or from −8 down
Recorded z-score for the following compounds
Reply with just the number.

These solved cases illustrate the format of a correct answer.
compound="COC(=O)C1(CC(C)C)C=C2C(=C(C)C(=O)C2C)CN1 (stereo not drawn)" testreadout=z-score measurement=-0.161
compound=[N-]=[N+]=NCc1ccccc1[C@H]1OC(c2ccc(OCCCO)cc2)=N[C@@]1(Cc1ccccc1N=[N+]=[N-])C(=O)N1CCOCC1 testreadout=z-score measurement=22
compound=COC(=O)[C@@]1(Cc2ccccc2)[C@H]2c3cc(C(=O)N(C)C)n(CCF)c3C[C@H]2CN1C(=O)c1ccccc1 testreadout=z-score measurement=0.322

Give its z-score value. Item: C=C(/C=C\CNS(=O)(=O)c1ccc(C)cc1)[C@H](O)[C@H]1CCCN1S(=O)(=O)c1ccccc1[N+](=O)[O-]
2.16

Subsequent entry: CCOC(=O)C[C@H]1[C@H](OC(=O)c2cc3ccccc3oc2=O)[C@@H](NC(=O)c2ccc(-c3ccccc3)cc2)c2cc(OCCCO)ccc2N1C(=O)Cc1ccc(OC)cc1
5.12

Subsequent entry: C=CCNC(=O)[C@H]1[C@@H]2C(=O)O[C@@H](c3ccccc3)[C@@H](c3ccccc3)N2[C@@H](c2ccc(O)cc2)[C@]12C(=O)Nc1ccc(C#CCC(C(=O)OC)C(=O)OC)cc12
1.51

Subsequent entry: CCCC=C(CCC)[C@@H](NC(=O)c1ccc(C(=O)OC)cc1)c1ccc(C(=O)OC)cc1
0.409

Subsequent entry: O=C1C2C=CC(C(O)C3CC=CCC3)N(Nc3ccc([N+](=O)[O-])cc3)C2C(=O)N1c1ccccc1 (stereo not drawn)
5.02

Subsequent entry: COC(=O)C[C@H]1O[C@]2(C(=O)N(C)c3ccccc32)[C@@H](C)[C@@H]1[Si](C)(C)c1ccccc1
0.405

Subsequent entry: O=C1N(Cc2ccccc2)Cc2ccccc2C[C@@]12COC(c1ccc(OCCCO)cc1)=N2
4.93

Subsequent entry: C=C(C(=O)CC[C@H](OC(=O)c1ccccc1-c1ccccc1C(=O)O)c1ccc(OCCO)cc1)C(C)C
1.77

====

# experimentSummary: binders of probe aFSTL3 on microarray, primary screen, stem cell growth factor project, biochemical, small-molecule microarray, fluorescence 635/667 (AID 1064);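 also: measures binding of the biotinylated anti-FSTL3 antibody to printed compounds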
# conditionContext: higher = more signal
testReadout: composite z-score

These solved cases illustrate the format of a correct answer.
compound="CC1CC/C=C\\[C@H]2OC34C=CCN(C(C)C)C(=O)[C@H]3N(C(C)CO)C(=O)[C@@H]4C2C(=O)O1 (stereo not given in full)" measurement=-0.213
compound="COc1ccc(C(O)C2C=CC3C(=O)N(c4ccccc4)C(=O)C3N2Nc2ccccc2F)c2ccccc12 (stereo not given)" measurement=1.24
compound=COc1ccc([Si](C)(C)[C@@H]2[C@@H](CC(=O)N3CCC[C@H]3CO)O[C@]3(C(=O)N(Cc4cccc(N5C(=O)c6cccc7cccc5c67)c4)c4ccccc43)[C@H]2C)cc1 measurement=-0.401
compound=O=C1N(Cc2ccccc2)Cc2ccccc2C[C@@]12COC(c1ccc(OCCCO)cc1)=N2 measurement=1.18
compound="CC(C)C[C@H]1NC(=O)CNC(=O)[C@@]23C(=O)N[C@@H](Cc4ccccc4)C2[C@H](C)[C@@]2(C)O[C@H]2C3/C=C/C/C=C\\CNC1=O (stereo not given in full)" measurement=-0.564

Give its composite z-score value. Item: CN(C)CCCCCCNC(=O)[C@@H]1C[C@@H]2C(=O)N[C@@H](CCCC[N+](C)(C)C)C(=O)N2[C@@H]1c1cccc(OCCO)c1
0.516

Subsequent entry: CCCCN1CC=CC23O[C@@H]4/C=C\CCC(C)OC(=O)C4[C@H]2C(=O)N(CCO)[C@@H]3C1=O (stereo not given in full)
0.19

Subsequent entry: Cc1c(NC(=O)/C(C#N)=C/C=C/c2ccc([N+](=O)[O-])cc2)c(=O)n(-c2ccccc2)n1C
-0.309

Subsequent entry: C=C(CC1([C@@H](NP(=O)(c2ccccc2)c2ccccc2)[C@H]2C[C@@H]2CCCC)CC1)c1cccc(OC)c1
0.511

Subsequent entry: C=CC[C@]12N=C(c3ccc(OCCCO)cc3)O[C@H]1c1ccccc1N(CCC)C2=O
1.08

Subsequent entry: O=C1C2C=CC(C(O)C3CC=CCC3)N(Nc3ccc([N+](=O)[O-])cc3)C2C(=O)N1c1ccccc1 (stereo not given)
1.47

Subsequent entry: O=C1O[C@H](c2ccccc2)[C@H](c2ccccc2)N2[C@H]1[C@@H](C(=O)N1CCN(c3ncccn3)CC1)[C@]1(C(=O)Nc3ccc(C#CC4(O)CCCCCC4)cc31)[C@H]2c1ccc(O)cc1
0.406

Subsequent entry: C=C(COC)C(=O)CC[C@@H](OC(=O)c1ccccc1-c1ccccc1C(=O)O)c1ccccc1OCCO
-0.167

Subsequent entry: COc1ccc([Si](C)(C)[C@@H]2[C@@H](CC(=O)N(CCO)Cc3ccccc3)O[C@]3(C(=O)N(Cc4cccc(I)c4)c4ccccc43)[C@H]2C)cc1
2.68

Subsequent entry: O=C1NC(=O)C2C1C=CC(C(O)c1ccc(F)cc1)N2Nc1ccc(Cl)cc1Cl (stereo not given)
0.848
